Origin of measurements: ChEMBL document CHEMBL1126921

Measured pIC50 on Neprilysin (Rattus norvegicus, UniProt P07861) follows.
Sequence (P07861 whole entry): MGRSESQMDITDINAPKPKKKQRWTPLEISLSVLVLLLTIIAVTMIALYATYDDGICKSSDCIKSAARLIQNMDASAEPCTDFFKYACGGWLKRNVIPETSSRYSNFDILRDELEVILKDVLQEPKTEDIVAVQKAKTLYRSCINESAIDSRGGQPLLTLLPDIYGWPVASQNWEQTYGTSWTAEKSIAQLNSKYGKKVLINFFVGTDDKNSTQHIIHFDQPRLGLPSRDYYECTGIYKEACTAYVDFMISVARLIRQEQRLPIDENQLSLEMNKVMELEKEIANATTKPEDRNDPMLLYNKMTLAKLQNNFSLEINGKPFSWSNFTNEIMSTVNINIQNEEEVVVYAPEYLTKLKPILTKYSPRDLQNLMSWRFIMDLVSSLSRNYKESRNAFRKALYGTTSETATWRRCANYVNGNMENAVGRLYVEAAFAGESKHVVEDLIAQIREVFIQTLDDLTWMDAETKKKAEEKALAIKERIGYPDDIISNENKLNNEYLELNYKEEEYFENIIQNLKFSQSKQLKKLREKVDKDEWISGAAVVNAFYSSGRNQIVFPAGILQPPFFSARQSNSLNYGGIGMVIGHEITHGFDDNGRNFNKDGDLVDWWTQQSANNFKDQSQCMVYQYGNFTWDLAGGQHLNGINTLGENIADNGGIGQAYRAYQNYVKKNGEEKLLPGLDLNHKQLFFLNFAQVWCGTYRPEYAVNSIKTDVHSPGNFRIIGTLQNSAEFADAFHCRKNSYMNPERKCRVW
Give bare numbers, as −log10 of the molar value.

Here's what some known entries look like.
Please look up its pIC50: O=C1N[C@H](C(=O)O)CSCCCCCCCCC1CS (stereo in doubt; 12a)
5.89

Note, next up: O=C1N[C@H](C(=O)O)CSCCCCCCCC1CS (single isomer, unassigned; isomer A)
6.72

Same again, this time with O=C1N[C@H](C(=O)O)CSCCCCCCCC1CS (single isomer, unassigned; isomer B)
7.74

Next compound, pIC50 to be filled in.
Could you tell me which pIC50 is on file for O=C1N[C@H](C(=O)O)CSCCCCCCCCC1CS (stereo in doubt; 12b) ?
6.78

====

- Target of assay: Angiotensin-converting enzyme (Oryctolagus cuniculus, UniProt P12822)
- Sequence (P12822 whole entry): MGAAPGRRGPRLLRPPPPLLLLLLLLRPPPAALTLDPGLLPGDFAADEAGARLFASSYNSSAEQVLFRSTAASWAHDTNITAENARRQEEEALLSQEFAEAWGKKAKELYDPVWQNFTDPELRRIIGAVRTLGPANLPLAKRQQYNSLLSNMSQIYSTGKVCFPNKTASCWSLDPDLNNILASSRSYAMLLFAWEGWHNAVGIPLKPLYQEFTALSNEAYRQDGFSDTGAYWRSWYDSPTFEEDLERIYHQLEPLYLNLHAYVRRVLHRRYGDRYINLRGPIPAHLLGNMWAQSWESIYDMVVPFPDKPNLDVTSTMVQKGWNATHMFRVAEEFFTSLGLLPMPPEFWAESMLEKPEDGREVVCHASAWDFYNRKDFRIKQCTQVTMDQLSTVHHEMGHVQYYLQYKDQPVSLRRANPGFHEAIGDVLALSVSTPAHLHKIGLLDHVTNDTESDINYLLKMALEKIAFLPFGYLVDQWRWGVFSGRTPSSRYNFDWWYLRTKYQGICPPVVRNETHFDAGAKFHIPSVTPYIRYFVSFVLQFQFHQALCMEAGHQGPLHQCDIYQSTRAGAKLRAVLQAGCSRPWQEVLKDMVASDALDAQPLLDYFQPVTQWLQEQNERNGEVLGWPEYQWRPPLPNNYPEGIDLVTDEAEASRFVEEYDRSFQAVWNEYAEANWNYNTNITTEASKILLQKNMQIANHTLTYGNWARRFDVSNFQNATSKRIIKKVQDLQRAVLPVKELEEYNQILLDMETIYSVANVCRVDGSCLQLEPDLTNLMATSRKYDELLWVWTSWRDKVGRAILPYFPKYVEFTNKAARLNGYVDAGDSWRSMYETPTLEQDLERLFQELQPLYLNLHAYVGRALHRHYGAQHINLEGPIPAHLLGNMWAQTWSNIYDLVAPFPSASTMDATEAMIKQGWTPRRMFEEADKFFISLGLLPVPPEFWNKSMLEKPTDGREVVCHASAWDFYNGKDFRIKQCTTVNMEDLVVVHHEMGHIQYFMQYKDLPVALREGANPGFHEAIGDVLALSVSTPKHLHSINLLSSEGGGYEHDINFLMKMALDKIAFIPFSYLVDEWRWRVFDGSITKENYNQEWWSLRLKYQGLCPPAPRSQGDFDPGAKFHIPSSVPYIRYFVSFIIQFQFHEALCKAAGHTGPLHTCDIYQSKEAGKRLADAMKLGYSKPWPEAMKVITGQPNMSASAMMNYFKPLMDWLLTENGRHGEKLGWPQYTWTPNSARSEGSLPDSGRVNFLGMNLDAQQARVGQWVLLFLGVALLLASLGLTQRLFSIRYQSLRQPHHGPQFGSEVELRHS
Value type: IC50 (nM)
Numbers only, in nM.

Item O=C1N[C@H](C(=O)O)CSCCCCCCCC1CS (single isomer, unassigned; isomer B) has what recorded IC50?
12
